Would you mind telling me the reported Activity of each entry?
assay: Toxicity in albino mouse assessed as motor coordination impairment by measuring animal fall-off from rod before 1 min at 100 mg/kg, ig administered 30 mins prior to test by rotarod test (reference value: 17%); type: organism-based; details: in vivo, po
Numbers only here, please. The scale is %.

In plain terms, O=C(Cn1c(=O)[nH]c2ccccc2c1=O)NCCCc1ccccc1 has a documented Activity of 17

In plain terms, O=C(Cn1c(=O)[nH]c2ccccc2c1=O)NC1CCCCC1 has a documented Activity of 17

In plain terms, O=C(Cn1c(=O)[nH]c2ccccc2c1=O)NCCc1ccccc1 has a documented Activity of 33

In plain terms, O=C(Cn1c(=O)[nH]c2ccccc2c1=O)NCc1ccc(Cl)cc1 has a documented Activity of 50

In plain terms, C=CCNC(=O)Cn1c(=O)[nH]c2ccccc2c1=O has a documented Activity of 33

In plain terms, CCCNC(=O)Cn1c(=O)[nH]c2ccccc2c1=O has a documented Activity of 33

In plain terms, O=C(Cn1c(=O)[nH]c2ccccc2c1=O)NCc1ccccc1 has a documented Activity of 17

In plain terms, COc1ccccc1CNC(=O)Cn1c(=O)[nH]c2ccccc2c1=O has a documented Activity of 50
